Catalogue of molecules with associated Percent remaining monomer
assay: Hydrolytic degradation kinetics of neat monomers by 1H NMR; assay type: physicochemical; conditions: day 6; 50 mM monomer, aqueous pH=1, 37° C.
measurement-kind: Percent remaining monomer

molecule=C=CC(=O)N(C)CCCN(C)CCCN(C)C(=O)C=C value="100.0 ± 0.0%"
molecule="C=C(C)C(=O)OCCO [HEMA, 2-hydroxyethyl methacrylate, reference compound]" value="66.1 ± 0.02%"
molecule=C=CC(=O)N(C)CCN(CCN(C)C(=O)C=C)CCN(C)C(=O)C=C value="99.0 ± 1.0%"
molecule="C=CC(=O)NN1CCCN(NC(=O)C=C)CC1 [BAADA, N,N′-bis(acrylamido) 1,4-diazepane]" value="100.0 ± 0.0%"

---

Test: Cytotoxicity (MTT) assay, OD-21 cells
Conditions: mouse
Procedure: For the cytotoxicity assay, two cell types were tested—odontoblast-like cell line (OD-21) and human dental pulp stem cells (hDPSC) (cat #PT5025, Lonza). […] Cells were counted using a hemocytometer, then 10,000 cells per well were seeded in 96-well plates for 24 hours (n=6). […] The half maximal inhibitory concentration (IC50) of each tested monomer was determined based on the plots of cell inhibition (%) as a function of the monomers concentration (mM) using GraphPad software.
measurement-kind: viability at 24 h, 5 mM (%)

smiles_input=C=CC(=O)N(C)CCCN(C)CCCN(C)C(=O)C=C value=24

---

Experiment: Hydrolytic degradation kinetics of neat monomers by 1H NMR
Type: physicochemical
Conditions: over one month, acidic aqueous conditions (pH=1)
Method: Neat monomers were subject to the hydrolytic degradation kinetics assay. An aqueous solution (pH=1) was prepared using HPLC grade water and adjusted using 1.0 M HCI. A 50 mM solution of each monomer (n=3) was prepared using 1.0 mL of the acidic aqueous solution. A capillary tube was filled with a 50 mM solution of tetramethylammonium bromide dissolved in D2O and flame sealed. […] After the initial reading, the NMR tubes were flame sealed and incubated at 37° C. […]
measurement-kind: final degradation percentage (%)

molecule="C=CC(=O)NN1CCCN(NC(=O)C=C)CC1 [BAADA, N,N′-bis(acrylamido) 1,4-diazepane]" units_text=% value=1.13
molecule=C=CC(=O)N(C)CCN(CCN(C)C(=O)C=C)CCN(C)C(=O)C=C units_text=% value=6.29
molecule=C=CC(=O)N(C)CCCN(C)CCCN(C)C(=O)C=C units_text=% value=1.27
molecule="C=C(C)C(=O)OCCO [HEMA, 2-hydroxyethyl methacrylate, reference compound]" units_text=% value=89.38

---

experiment: Hydrolytic degradation kinetics of neat monomers by 1H NMR; type: physicochemical; details: day 19; 50 mM monomer, aqueous pH=1, 37° C.
Catalogue of compounds with associated Percent remaining monomer
measurement-kind: Percent remaining monomer (%)

compound=C=CC(=O)N(C)CCCN(C)CCCN(C)C(=O)C=C value=99.7
compound="C=C(C)C(=O)OCCO [HEMA, 2-hydroxyethyl methacrylate, reference compound]" value=25.2
compound=C=CC(=O)N(C)CCN(CCN(C)C(=O)C=C)CCN(C)C(=O)C=C value=96.7
compound=C=CC(=O)NN1CCCN(NC(=O)C=C)CC1 value=92.3

---

test system: odontoblast-like cell line (OD-21); experiment: Cytotoxicity (MTT) assay, OD-21 cells; details: Mus musculus, 24 h, read-out: IC50 OD-21
Catalogue of molecules with associated IC50
measurement-kind: IC50 (mM)

molecule=C=CC(=O)N(C)CCCN(C)CCCN(C)C(=O)C=C measurement_kind=IC50 value=4.75
molecule=C=CC(=O)N(C)CCN(CCN(C)C(=O)C=C)CCN(C)C(=O)C=C measurement_kind=IC50 value=8.02
molecule="C=CC(=O)NN1CCCN(NC(=O)C=C)CC1 [BAADA, N,N′-bis(acrylamido) 1,4-diazepane]" measurement_kind=IC50 value=9.98
molecule="C=C(C)C(=O)OCCO [HEMA, 2-hydroxyethyl methacrylate, reference compound]" measurement_kind=IC50 value=15.4

Provenance of the data: patent US20240052079A1
